Tested on: CCRF-CEM
Assay: The human T-lymphoblast CEM cell (ATCC) proliferation inhibitory activity was determined
Format: functional, cell-based
Task for the reader: assign each of the following compounds its reported IC50.
Give bare numbers, in µM.

Look over these answered cases.
Request: Looking for the measured IC50 of COc1cc(NC(=O)/C=C/c2ccncc2)ccc1-c1cnco1 , can you help?
Result: 8.7

Request: Looking for the measured IC50 of COc1cc(NC(=O)c2ccc(C)s2)ccc1-c1cnco1 , can you help?
Result: 8.8

Request: Looking for the measured IC50 of COc1cc(NC(=O)c2cc3ccccc3n2C)ccc1-c1cnco1 , can you help?
Result: 7.7

---
Request: Looking for the measured IC50 of COc1cc(NC(=O)/C=C/c2ccco2)ccc1-c1cnco1 , can you help?
Result: 6.6

---

Target: Inosine-5'-monophosphate dehydrogenase 2 (Homo sapiens, UniProt P12268)
Test: Inhibitory activity of compound was evaluated against the Inosine-5'-monophosphate dehydrogenase 2
Task for the reader: assign each of the following compounds its reported pIC50.
Give bare numbers, as −log10 of the molar value.

Request: Looking for the measured pIC50 of COc1cc(NC(=O)/C=C/c2c(C)cc(F)cc2C)ccc1-c1cnco1 , can you help?
Result: 7.12

Request: Looking for the measured pIC50 of COc1cc(NC(=O)c2ccc(C(C)(C)C)o2)ccc1-c1cnco1 , can you help?
Result: 6.89

Request: Looking for the measured pIC50 of COc1cc(NC(=O)/C=C/c2ccncc2)ccc1-c1cnco1 , can you help?
Result: 7.24

List reported pIC50 for each of these compounds:
1. COc1cc(NC(=O)/C=C/c2ccco2)ccc1-c1cnco1
2. COc1cc(NC(=O)c2ccc(C)c(C)c2)ccc1-c1cnco1
3. COc1cc(NC(=O)c2cccn2C)ccc1-c1cnco1
4. COc1cc(NC(=O)c2ccc3c(c2)OCO3)ccc1-c1cnco1
5. COc1cc(NC(=O)c2cc(C)c(C)o2)ccc1-c1cnco1

Result:
[7.55, 6.59, 6.05, 6.48, 6.27]

List reported pIC50 for each of these compounds:
1. COc1cc(NC(=O)c2ccc(C)s2)ccc1-c1cnco1
2. COc1cc(NC(=O)/C=C/c2ccccc2F)ccc1-c1cnco1

Result:
1. 6.96
2. 6.13

---

Task for the reader: assign each of the following compounds its reported pIC50.
Target: Inosine-5'-monophosphate dehydrogenase 2 (Homo sapiens)
Test: Inhibitory activity of compound was evaluated against the Inosine-5'-monophosphate dehydrogenase 2
One number for each entry, as −log10 of the molar value.

List reported pIC50 for each of these compounds:
1. COc1cc(NC(=O)c2cc3ccccc3n2C)ccc1-c1cnco1
2. COc1cc(NC(=O)/C=C/c2ccc(Cl)cc2)ccc1-c1cnco1

Result:
1: 6.89; 2: 6.64

---

Target: Inosine-5'-monophosphate dehydrogenase 2 (Homo sapiens)
Assay: Inhibitory activity of compound was evaluated against the Inosine-5'-monophosphate dehydrogenase 2
Task for the reader: assign each of the following compounds its reported IC50.
Numbers only, in nM.

Look over these answered cases.
Request: Record lookup: for Inosine-5'-monophosphate dehydrogenase 2 (Homo sapiens), what IC50 belongs to COc1cc(NC(=O)/C=C/c2ccc3ccccc3n2)ccc1-c1cnco1 ?
Result: 630

Request: Record lookup: for Inosine-5'-monophosphate dehydrogenase 2 (Homo sapiens), what IC50 belongs to COc1ccccc1/C=C/C(=O)Nc1ccc(-c2cnco2)c(OC)c1 ?
Result: 110

List reported IC50 for each of these compounds:
1. COc1cc(NC(=O)c2ccc3[nH]ccc3c2)ccc1-c1cnco1
2. COc1ccccc1/C=C\C(=O)Nc1ccc(-c2cnco2)c(OC)c1
3. COc1cc(NC(=O)c2cc3ccccc3[nH]2)ccc1-c1cnco1
4. COc1cc(NC(=O)/C=C/c2cccs2)ccc1-c1cnco1
5. COc1cc(NC(=O)/C=C/c2cccc(Cl)c2)ccc1-c1cnco1

Result:
630
960
110
66
300

List reported IC50 for each of these compounds:
1. COc1cc(NC(=O)/C=C/c2ccccc2)ccc1-c1cnco1
2. COc1cc(NC(=O)c2cc3ccccc3s2)ccc1-c1cnco1
3. COc1cc(NC(=O)c2ccc(-c3ccccn3)s2)ccc1-c1cnco1
4. COc1cc(NC(=O)/C=C/c2cccc(F)c2)ccc1-c1cnco1
5. COc1cc(NC(=O)c2cc3ccccn3c2)ccc1-c1cnco1
6. COc1cc(NC(=O)/C=C/c2c[nH]c3ccccc23)ccc1-c1cnco1
7. COc1cc(NC(=O)/C=C/c2ccccc2C)ccc1-c1cnco1

Result:
1: 73; 2: 170; 3: 870; 4: 200; 5: 140; 6: 410; 7: 35

List reported IC50 for each of these compounds:
1. COc1cc(NC(=O)c2cc3ccccc3o2)ccc1-c1cnco1
2. COc1cc(NC(=O)/C=C/c2ccc(C)cc2)ccc1-c1cnco1
3. COc1cc(NC(=O)c2ccco2)ccc1-c1cnco1
4. COc1cc(NC(=O)/C=C/c2ccc(F)cc2)ccc1-c1cnco1
5. COc1cc(NC(=O)Cc2ccccc2)ccc1-c1cnco1

Result:
[210, 210, 2500, 120, 970]

List reported IC50 for each of these compounds:
1. COc1cc(NC(=O)/C=C/c2cccc(C)c2)ccc1-c1cnco1
2. COc1cc(NC(=O)c2cccs2)ccc1-c1cnco1

Result:
1: 590; 2: 810

List reported IC50 for each of these compounds:
1. COc1cc(NC(=O)/C=C/c2ccccc2Cl)ccc1-c1cnco1
2. COc1cc(NC(=O)/C=C/c2cccnc2)ccc1-c1cnco1

Result:
60
210

---

Target: UniProt:P12268
Assay: Inhibitory activity of compound was evaluated against the inosine monophosphate dehydrogenase -II (IMPDH-II) enzyme
measured-parameter: IC50

Request: Looking for the measured IC50 of COc1cc(NC(=O)c2ccccc2)ccc1-c1cnco1 , can you help?
Result: 0.63 µM

FYI, the data here is from ChEMBL document CHEMBL1135864.
